Target: full length TcdB (C. difficile, UniProt P18177 1-2366)
Assay: SPR
Settings: both partners purified
pKd: −log10 of the molar value.
Label 1 for high-side pKd (at or above 9) and -1 for low-side pKd (below it).

Use the examples below as a reference point.
binder | label
ss2cspg27 (designed binder, also called c27; dual disulfide version of cspg27) MDELVEKLKECLEKLKEKGDIKGVTDTEKAIRICERSRHKEFCEWAIEACEARIKES | 1
cspg4 (designed binder) ENKLARAVVTVNKSWLATQLFVRLYRLCKAGDPRCEEVAEKLRKVLELQGVPETDIELVVEVAKG | -1
ss2cspg35 (designed binder, also called dual disulfide version of cspg35) MDELVEKLKECLEKLKEKGDLKGVKDTERAIRICERSRHKEFCEWAIEKCEARIKES | 1

Check this binder for pKd at or above 9: cspg67 (designed binder) AEELAKKLEEMAEVFKEKGDEEGAKECLKAAKIVRRSKNEEFGKWCIKKAEERLKKL
-1
